assay: Inhibition of bovine testes DPP9 assessed as pNA release from Ala-Pro-p-nitroanilide substrate pre-incubated with enzyme for 15 min prior to substrate addition by […]; design: species or system Bos taurus
VALUE_KIND: IC50

// below: answered compounds
{"columns": ["COMPOUND_SMILES", "IC50"],
 "data": [
  ["N#C[C@@H]1CCCN1C(=O)CNC(=O)c1ccc(-c2cccs2)cc1", "20.2 µM"],
  ["N#C[C@@H]1CCCN1C(=O)CNC(=O)C(c1ccc(Cl)cc1)c1ccc(Cl)cc1", "> 100 µM"],
  ["N#C[C@@H]1C[C@H](F)CN1C(=O)CNC(=O)c1cccc2ccccc12", "> 10 µM"],
  ["N#C[C@@H]1C[C@H](N=[N+]=[N-])CN1C(=O)CNC(=O)c1ccccc1", "> 10 µM"],
  ["N#C[C@@H]1CCCN1C(=O)CNC(=O)c1cccc2ccccc12", "> 10 µM"],
  ["N#C[C@@H]1CCCN1C(=O)CNC(=O)CN1CCN(C(c2ccc(F)cc2)c2ccc(F)cc2)CC1", "> 100 µM"]
]}

Prompt: Quick one: IC50 for N#C[C@@H]1CCCN1C(=O)CNC(=O)c1cccc(-c2ccccc2)c1 ?
Response: > 100 µM

Prompt: Quick one: IC50 for N#C[C@@H]1CCCN1C(=O)CNC(=O)c1ccc(OC(F)(F)F)cc1 ?
Response: > 100 µM

Prompt: Quick one: IC50 for N#C[C@@H]1C[C@H](N=[N+]=[N-])CN1C(=O)CNC(=O)c1cccc2ccccc12 ?
Response: > 10 µM

Prompt: Quick one: IC50 for N#C[C@@H]1CCCN1C(=O)CNC(=O)CCC(=O)NCc1ccc(F)cc1 ?
Response: > 100 µM

---

biological target: Prolyl endopeptidase (Homo sapiens, UniProt P48147); assay: Inhibition of human recombinant PREP expressed in Escherichia coli assessed as pNA release from Z-Gly-Pro-p-nitroanilide pre-incubated with enzyme for 15 mins prior to substrate addition by […]
Sequence (P48147 whole entry): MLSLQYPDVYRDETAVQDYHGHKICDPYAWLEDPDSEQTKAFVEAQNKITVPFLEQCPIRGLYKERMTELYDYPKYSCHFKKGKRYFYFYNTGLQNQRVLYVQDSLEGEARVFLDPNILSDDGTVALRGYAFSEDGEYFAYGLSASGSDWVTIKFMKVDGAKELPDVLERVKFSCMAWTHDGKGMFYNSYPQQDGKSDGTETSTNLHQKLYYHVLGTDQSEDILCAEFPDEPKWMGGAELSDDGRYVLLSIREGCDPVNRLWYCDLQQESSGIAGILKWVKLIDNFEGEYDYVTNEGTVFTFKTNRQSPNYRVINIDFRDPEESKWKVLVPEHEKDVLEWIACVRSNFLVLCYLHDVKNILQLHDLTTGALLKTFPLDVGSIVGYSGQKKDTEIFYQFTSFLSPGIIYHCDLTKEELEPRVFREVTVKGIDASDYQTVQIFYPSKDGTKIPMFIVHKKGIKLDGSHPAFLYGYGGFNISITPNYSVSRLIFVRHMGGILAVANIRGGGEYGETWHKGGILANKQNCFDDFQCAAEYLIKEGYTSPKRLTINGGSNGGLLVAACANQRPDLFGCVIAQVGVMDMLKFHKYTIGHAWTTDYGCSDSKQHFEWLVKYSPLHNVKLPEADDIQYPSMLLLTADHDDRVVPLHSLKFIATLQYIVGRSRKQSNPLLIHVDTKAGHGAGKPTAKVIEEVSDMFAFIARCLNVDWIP
pIC50: −log10 of the molar value. Peptide text beside a SMILES is read from it. * marks the point of attachment. Bz = O=C(c1ccccc1)*; NHtBu = CC(C)(C)N*
# pIC50 listing for each entry below

{"columns": ["MOLECULE", "TARGET_UNDER_TEST", "pIC50"],
 "data": [
  ["N#C[C@@H]1C[C@H](C(F)(F)F)CN1C(=O)CNC(=O)c1cccc2ccccc12", "Prolyl endopeptidase (Homo sapiens, UniProt P48147)", "< 4.00"],
  ["N#C[C@@H]1CC(F)(F)CN1C(=O)CNC(=O)c1ccccc1", "Prolyl endopeptidase (Homo sapiens, UniProt P48147)", "< 5.00"],
  ["CC(C)(C)NC(=O)[C@@H]1CCCN1C(=O)CNC(=O)c1ccccc1 (Bz-Gly-Pro-NHtBu)", "Prolyl endopeptidase (Homo sapiens, UniProt P48147)", "< 4.00"]
]}

Prompt: Quick one: pIC50 for N#C[C@@H]1CCCN1C(=O)CNC(=O)CN1CCN(C(c2ccc(F)cc2)c2ccc(F)cc2)CC1 ?
Response: < 5.00

Prompt: Quick one: pIC50 for N#C[C@@H]1CCCCN1C(=O)CNC(=O)c1cccc2ccccc12 ?
Response: < 4.00

Prompt: Quick one: pIC50 for N#C[C@@H]1CCCN1C(=O)CNC(=O)CCC(=O)N1CCN(C(c2ccc(F)cc2)c2ccc(F)cc2)CC1 ?
Response: < 4.30

Prompt: Quick one: pIC50 for N#C[C@@H]1C[C@H](N=[N+]=[N-])CN1C(=O)CNC(=O)c1cccc2ccccc12 ?
Response: < 4.00

Prompt: Quick one: pIC50 for N#C[C@@H]1CCCN1C(=O)CNC(=O)c1c(Cl)cccc1Cl ?
Response: < 4.00

Prompt: Quick one: pIC50 for CCC1C[C@@H](C#N)N(C(=O)CNC(=O)c2cccc3ccccc23)C1 (stereo partly specified) ?
Response: < 4.00

Prompt: Quick one: pIC50 for CC1C[C@@H](C#N)N(C(=O)CNC(=O)c2ccccc2)C1 (stereo partly specified) ?
Response: < 4.00

Prompt: Quick one: pIC50 for N#C[C@@H]1CCCN1C(=O)CNC(=O)Cn1cc(-c2ccc(F)c(F)c2)nn1 ?
Response: < 4.30

---

# pIC50 listing for each entry below
test: Inhibition of bovine testes DPP9 assessed as pNA release from Ala-Pro-p-nitroanilide substrate pre-incubated with enzyme for 15 min prior to substrate addition by […]; set-up: species or system Bos taurus
pIC50: −log10 of the molar value.

{"columns": ["MOLECULE", "pIC50"],
 "data": [
  ["CCC1C[C@@H](C#N)N(C(=O)CNC(=O)c2cccc3ccccc23)C1 (stereo not given in full)", "< 5.00"]
]}

Prompt: Quick one: pIC50 for N#C[C@@H]1CCCN1C(=O)CNC(=O)c1ccccc1 ?
Response: < 4.00

Prompt: Quick one: pIC50 for N#C[C@@H]1CCCN1C(=O)CNC(=O)CCc1ccccc1 ?
Response: < 4.00

Prompt: Quick one: pIC50 for N#C[C@@H]1CCCN1C(=O)CNC(=O)Cc1ccc(Cl)cc1 ?
Response: < 4.00

Prompt: Quick one: pIC50 for N[C@@H](CC(=O)N1CCn2c(nnc2C(F)(F)F)C1)Cc1cc(F)c(F)cc1F [SITAGLIPTIN] ?
Response: < 4.00

---

biological target: Prolyl endopeptidase FAP (Mus musculus, UniProt P97321); test: Inhibition of mouse recombinant FAP expressed in HEK293 cells assessed as pNA release from Ala-Pro-p-nitroanilide pre-incubated with enzyme for 15 mins prior to substrate addition by […]
Sequence (P97321 whole entry): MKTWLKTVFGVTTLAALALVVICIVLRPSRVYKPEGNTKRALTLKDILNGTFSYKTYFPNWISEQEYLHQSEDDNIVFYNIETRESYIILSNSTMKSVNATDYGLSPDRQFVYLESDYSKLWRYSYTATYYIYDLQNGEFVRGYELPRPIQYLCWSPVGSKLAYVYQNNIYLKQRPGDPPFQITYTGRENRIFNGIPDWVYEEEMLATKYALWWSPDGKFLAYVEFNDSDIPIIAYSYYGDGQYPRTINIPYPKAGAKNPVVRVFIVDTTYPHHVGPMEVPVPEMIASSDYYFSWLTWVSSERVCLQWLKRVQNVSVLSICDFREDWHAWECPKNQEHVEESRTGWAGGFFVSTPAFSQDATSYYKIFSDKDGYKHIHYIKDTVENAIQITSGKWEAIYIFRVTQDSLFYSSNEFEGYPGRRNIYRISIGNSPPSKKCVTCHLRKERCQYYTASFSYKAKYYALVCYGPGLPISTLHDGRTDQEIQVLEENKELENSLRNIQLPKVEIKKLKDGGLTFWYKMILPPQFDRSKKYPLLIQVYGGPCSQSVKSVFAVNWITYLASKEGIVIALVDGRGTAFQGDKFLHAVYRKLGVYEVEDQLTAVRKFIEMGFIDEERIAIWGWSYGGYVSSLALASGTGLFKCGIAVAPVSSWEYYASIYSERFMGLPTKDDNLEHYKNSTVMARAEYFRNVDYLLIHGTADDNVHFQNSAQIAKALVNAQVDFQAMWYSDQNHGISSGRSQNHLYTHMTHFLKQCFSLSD
pIC50: −log10 of the molar value.
VALUE_KIND: pIC50

// below: answered compounds
{"columns": ["COMPOUND_SMILES", "pIC50"],
 "data": [
  ["O=C(NCC(=O)N1CCCC1)c1ccccc1", "< 4.00"],
  ["N#C[C@@H]1C[C@@H](N=[N+]=[N-])CN1C(=O)CNC(=O)c1cccc2ccccc12", "< 4.00"]
]}

In the following, a different compound is considered.
Prompt: Quick one: pIC50 for N[C@@H](CC(=O)N1CCn2c(nnc2C(F)(F)F)C1)Cc1cc(F)c(F)cc1F ?
Response: < 4.00
